// reported log10 IC50 per item
system: DU-145; assay: Antiproliferative activity against human DU145 cells assessed as decrease in cell viability after 3 days by WST assay; assay type: functional, cell-based; conditions: DU-145, 72 h
Form field - Quantity: IC50; Unit: nM; Scale: log10

Example entries and their recorded answers appear below.
>  <compound>
CC(C)n1ccnc1/C=C/C(=O)/C=C/c1cnc(N2CCCCC2)s1

>  <log10 IC50>
3.41

$$$$
>  <compound>
CC(C)n1ccnc1/C=C/C(=O)/C=C/c1cnc(N2CCCC2)s1

>  <log10 IC50>
3.57

$$$$
>  <compound>
CCC(C)n1ccnc1/C=C/C(=O)/C=C/c1cc(C)on1 (stereo not drawn)

>  <log10 IC50>
2.72

$$$$
>  <compound>
CCC(C)n1ccnc1/C=C/C(=O)/C=C/c1cccc(C)n1 (stereo not drawn)

>  <log10 IC50>
2.46

$$$$
>  <compound>
CC(C)CCn1ccnc1/C=C/C(=O)/C=C/c1nc2ccccc2n1CCC(C)C

>  <log10 IC50>
2.89

$$$$
>  <compound>
Cc1nc(C(F)(F)F)c(/C=C/C(=O)/C=C/c2nc3ccccc3n2C(C)C)s1

>  <log10 IC50>
2.76

$$$$

*Q* Requested read-out log10 IC50, target or system DU-145, entry CCCn1ccnc1/C=C/C(=O)/C=C/c1nc2ccccc2n1CCC
*A* 2.34

====

test: Plasma concentration in Sprague-Dawley rat at 10 mg/kg administered via oral gavage measured at 6 hrs by HPLC-MS/MS analysis; format: ADME, organism-based
readout name: concentration at 6 h (ng/mL)
API: value field is a number in ng/mL; no unit string.

Below are worked cases with known answers.
>  <molecule>
CCC(C)n1ccnc1/C=C/C(=O)/C=C/c1sc(C)nc1C(F)(F)F (centres undefined)

>  <concentration at 6 h [ng/mL]>
1940

$$$$
>  <molecule>
CCCn1ccnc1/C=C/C(=O)/C=C/c1nc2ccccc2n1CCC

>  <concentration at 6 h [ng/mL]>
281

$$$$

*Q* // query concentration at 6 h value for entry CC(C)n1c(/C=C/C(=O)/C=C/c2ccccn2)nc2ccccc21
*A* 456

*Q* Param item = CCn1c(/C=C/C(=O)/C=C/c2sc(C)nc2C(F)(F)F)nc2ccccc21 ; retrieve measured concentration at 6 h.
*A* 1230

====

Recorded Retention_time for the following molecules
experiment: Retention time of the compound; type: physicochemical
Numeric answer only, unit min assumed.

Recorded Retention_time, per entry:
>  <molecule>
CCC(C)n1ccnc1/C=C/C(=O)/C=C(\O)c1sc(C)nc1C(F)(F)F (configuration not stated)

>  <readout name>
Retention_time

>  <unit of measurement>
min

>  <recorded value>
3.97

$$$$
>  <molecule>
CCC(C)n1ccnc1/C=C/C(=O)/C=C/c1sc(C)nc1C(F)(F)F (configuration not stated)

>  <readout name>
Retention_time

>  <unit of measurement>
min

>  <recorded value>
4.35

$$$$
>  <molecule>
CCC(C)n1cc(O)nc1/C=C/C(=O)/C=C/c1sc(C)nc1C(F)(F)F (configuration not stated)

>  <readout name>
Retention_time

>  <unit of measurement>
min

>  <recorded value>
3.32

$$$$
>  <molecule>
CCC(C)n1ccnc1/C(O)=C/C(=O)/C=C/c1sc(C)nc1C(F)(F)F (configuration not stated)

>  <readout name>
Retention_time

>  <unit of measurement>
min

>  <recorded value>
3.7

$$$$
>  <molecule>
CCn1c(/C=C/C(=O)/C=C/c2sc(C)nc2C(F)(F)F)nc2ccccc21

>  <readout name>
Retention_time

>  <unit of measurement>
min

>  <recorded value>
5.05

$$$$

*Q* What value of Retention_time has been reported for the following molecule? CCn1c(/C(O)=C/C(=O)/C=C/c2sc(C)nc2C(F)(F)F)nc2ccccc21
*A* 4.54

*Q* Give its Retention_time value. Item: CCn1c(/C=C/C(=O)/C=C(\O)c2sc(C)nc2C(F)(F)F)nc2ccccc21
*A* 4.66

====

Entries and their measured concentration at 24 h follow.
assay: Plasma concentration in Sprague-Dawley rat at 10 mg/kg administered via oral gavage measured after 1 day by HPLC-MS/MS analysis; format: ADME, organism-based
Reply numerically in ng/mL, unit not repeated.

>  <compound>
CC(C)n1c(/C=C/C(=O)/C=C/c2ccccn2)nc2ccccc21

>  <unit of measurement>
ng/mL

>  <concentration at 24 h>
103

$$$$

*Q* # concentration at 24 h lookup, item CCCn1ccnc1/C=C/C(=O)/C=C/c1nc2ccccc2n1CCC
*A* 86

*Q* Look at this compound and give its reported concentration at 24 h. CCC(C)n1ccnc1/C=C/C(=O)/C=C/c1sc(C)nc1C(F)(F)F (centres undefined)
*A* 230

*Q* concentration at 24 h lookup needed for CCn1c(/C=C/C(=O)/C=C/c2sc(C)nc2C(F)(F)F)nc2ccccc21 , thanks.
*A* 314

====

system: LNCaP; assay: Potency index, ratio of curcumin IC50 to test compound IC50 for human LNCAP cells; format: functional
Quick list: Ratio IC50 per entry.

Example cases with answers are listed next.
>  <compound>
CCCCn1ccnc1/C=C/C(=O)/C=C/c1nc2ccccc2n1CCCC

>  <Ratio IC50>
34

$$$$
>  <compound>
CC(C)n1ccnc1/C=C/C(=O)/C=C/c1cnc(N2CCOCC2)s1

>  <Ratio IC50>
10

$$$$
>  <compound>
CCC(C)n1ccnc1/C=C/C(=O)/C=C/c1sc(C)nc1C(F)(F)F (stereo unspecified)

>  <Ratio IC50>
62

$$$$
>  <compound>
Cc1cc(/C=C/C(=O)/C=C/c2ccccn2)no1

>  <Ratio IC50>
44

$$$$
>  <compound>
Cc1nc(-c2ccncc2)sc1/C=C/C(=O)/C=C/c1nccn1C(C)C

>  <Ratio IC50>
25

$$$$

The record that follows has no Ratio IC50 shown yet.
*Q* Which measured Ratio IC50 value corresponds to Cc1cccc(/C=C/C(=O)/C=C/c2ccccn2)n1 ?
*A* 45

====

Reported concentration at 1 h by item:
test: Plasma concentration in Sprague-Dawley rat at 10 mg/kg administered via oral gavage measured at 1 hr by HPLC-MS/MS analysis; assay type: ADME, organism-based
Answer in ng/mL, number only, no unit symbol.

>  <molecule>
CCC(C)n1ccnc1/C=C/C(=O)/C=C/c1sc(C)nc1C(F)(F)F (centres undefined)

>  <recorded value>
361

$$$$
>  <molecule>
CCCn1ccnc1/C=C/C(=O)/C=C/c1nc2ccccc2n1CCC

>  <recorded value>
114

$$$$

*Q* Would you mind telling me what concentration at 1 h value was observed for CC(C)n1c(/C=C/C(=O)/C=C/c2ccccn2)nc2ccccc21 ?
*A* 823

*Q* Quick one: concentration at 1 h for CCn1c(/C=C/C(=O)/C=C/c2sc(C)nc2C(F)(F)F)nc2ccccc21 ?
*A* 112

====

Each item that follows carries a reported Ratio IC50.
system: LNCaP; assay: Potency index, ratio of curcumin IC50 to test compound IC50 for human LNCAP cells; format: functional

>  <compound>
CCn1c(/C=C/C(=O)/C=C/c2ccccn2)nc2ccccc21

>  <Ratio IC50>
113

$$$$
>  <compound>
Cc1nc(C(F)(F)F)c(/C=C/C(=O)/C=C/c2nc3ccccc3n2C(C)C)s1

>  <Ratio IC50>
45

$$$$
>  <compound>
CCCn1c(/C=C/C(=O)/C=C/c2ccccn2)nc2ccccc21

>  <Ratio IC50>
80

$$$$
>  <compound>
Cn1cc(Br)c(/C=C/C(=O)/C=C/c2ccccn2)n1

>  <Ratio IC50>
62

$$$$
>  <compound>
Cc1nc(C(F)(F)F)c(/C=C/C(=O)/C=C/c2nc3ccccc3n2C)s1

>  <Ratio IC50>
40

$$$$

With those in mind, consider the next compound.
*Q* # query: Ratio IC50 of entry CCC(C)n1ccnc1/C=C/C(=O)/C=C/c1conc1C (stereo unspecified)
*A* 57

====

assay: Cmax in Sprague-Dawley rat at 10 mg/kg administered via oral gavage by HPLC-MS/MS analysis; type: ADME, organism-based; design: dose 10 mg/kg, route oral; conditions: in vivo
readout name: Cmax (µM)
The reply should contain only the number, in µM.

Example results:
>  <molecule>
CCn1c(/C=C/C(=O)/C=C/c2sc(C)nc2C(F)(F)F)nc2ccccc21

>  <unit of measurement>
µM

>  <Cmax>
3.25

$$$$
>  <molecule>
CC(C)n1c(/C=C/C(=O)/C=C/c2ccccn2)nc2ccccc21

>  <unit of measurement>
µM

>  <Cmax>
13.5

$$$$

Now take the following molecule into account.
*Q* I have this molecule here, CCC(C)n1ccnc1/C=C/C(=O)/C=C/c1sc(C)nc1C(F)(F)F (centres undefined) , and I need its recorded Cmax.
*A* 5.27

====

experiment: Tmax in Sprague-Dawley rat at 10 mg/kg administered via oral gavage by HPLC-MS/MS analysis; type: ADME, organism-based; conditions: in vivo
compounds and their reported Tmax
Give just the number in h; leave the unit off.

Study these solved cases before continuing.
>  <compound>
CCC(C)n1ccnc1/C=C/C(=O)/C=C/c1sc(C)nc1C(F)(F)F (centres undefined)

>  <Tmax [h]>
6

$$$$
>  <compound>
CCCn1ccnc1/C=C/C(=O)/C=C/c1nc2ccccc2n1CCC

>  <Tmax [h]>
6

$$$$
>  <compound>
CC(C)n1c(/C=C/C(=O)/C=C/c2ccccn2)nc2ccccc21

>  <Tmax [h]>
3

$$$$

*Q* Give its Tmax value. Item: CCn1c(/C=C/C(=O)/C=C/c2sc(C)nc2C(F)(F)F)nc2ccccc21
*A* 6

Data origin, for the record: ChEMBL document CHEMBL4190216
